// reported PBM binding z-score for each item listed
# Test system: PPARa:RXRa (NR concentration 270 nM, RXRa partner concentration 90 nM)
# assayProcedure: PBM binding z-score (relative to random genomic background probes); higher = stronger binding; sequences stand for … in GC…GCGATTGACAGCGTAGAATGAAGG
attributeMeasured: PBM binding z-score

INSERT INTO results (inputsequence, recordedvalue) VALUES
  ('ATATGTAGGTTACATCCGGGTCATTCAGGCTATG', 4.32),
  ('CCTGCTAGGTCATGGTCAGCTCATCTACAGTATG', 3.42),
  ('CCTACTGAGCCAAAAAGGTCATTGATGCCGATAA', 4.37),
  ('CCTCGGGGGACAGAAGGTCAGAGCTGTCCGCTTT', 3.5),
  ('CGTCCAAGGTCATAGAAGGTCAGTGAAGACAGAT', 5.53),
  ('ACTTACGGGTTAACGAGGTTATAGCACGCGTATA', 3.12),
  ('CAAACTAGGTCACAGAGGTCAAATTCCGTGCGTA', 6.59),
  ('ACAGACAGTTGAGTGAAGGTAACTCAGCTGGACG', -0.127),
  ('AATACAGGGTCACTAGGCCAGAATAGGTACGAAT', 5.95),
  ('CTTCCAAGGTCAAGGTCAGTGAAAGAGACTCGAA', 6.31),
  ('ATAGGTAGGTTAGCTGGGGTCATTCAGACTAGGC', 4.82),
  ('TCTGCTAGGTAAACGATGGTCAGCTAATCTGCTA', -0.0928);

====

# Test system: RARa homodimer (NR concentration 270 nM)
# assayProcedure: PBM binding z-score (relative to random genomic background probes); higher = stronger binding; sequences stand for … in GC…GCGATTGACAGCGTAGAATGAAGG
Entry flag: Yes if PBM binding z-score reaches -0.003; No if it does not.

INSERT INTO measurements (inputsequence, discretelabel) VALUES
  ('TCGACTAGGTTACCAATGGGGCATTCAGCTTTCT', 'No'),
  ('TCTTGTAGATCAAAGGATAAGAAAGCCGAAGCCT', 'Yes'),
  ('TAGCCTAGGTCATTGGGCCAGTATCGTACGCATC', 'Yes'),
  ('GCTCGGATGACAAGGTCAGAGCTTTGTCCGTAGA', 'No'),
  ('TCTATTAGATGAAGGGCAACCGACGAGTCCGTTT', 'Yes'),
  ('GCTATTAGTTGAAAGGGCAATCGAATGATTCTCG', 'Yes'),
  ('CCAGACAGGTGAGAAGGTAAATCAGCCTCGATTA', 'No'),
  ('CCTAGTTGGTCAAGGTCACCCACGCTATAGGTAC', 'Yes'),
  ('GCTATTAGTTGAAAGGGCAACCCAATGATTCTCG', 'Yes'),
  ('GGAACAAGGGCAAGTTGATAGCAGAGTTTGATGG', 'Yes'),
  ('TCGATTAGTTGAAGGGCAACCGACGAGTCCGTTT', 'Yes'),
  ('CCGACTGCGGCATAAGGTTACCATAAGCCAGCCC', 'Yes'),
  ('ATATGTAGGTTATAGGGTCATTCAGTTTGCGCAT', 'Yes'),
  ('TCATATAGGTAAATGCTAGGTGAAAGTGCGATCT', 'Yes'),
  ('CGAACTAGGTCATTGACAGGAGAGTGAATAGTAA', 'Yes'),
  ('AGAATGAGGTTACCTAAGATCAGGGAAACGCTTG', 'No'),
  ('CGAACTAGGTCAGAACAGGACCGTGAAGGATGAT', 'No'),
  ('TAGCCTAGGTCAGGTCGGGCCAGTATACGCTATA', 'No'),
  ('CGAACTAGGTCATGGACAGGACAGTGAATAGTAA', 'Yes'),
  ('TCTTCTAGATCAGCAGGTTAAGAAAGCTGGCCAA', 'No'),
  ('CCTACTGGGCAATTCAGAGGTCATTGATCATATG', 'Yes'),
  ('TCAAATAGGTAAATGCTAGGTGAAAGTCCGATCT', 'Yes'),
  ('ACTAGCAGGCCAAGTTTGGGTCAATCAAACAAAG', 'No'),
  ('GCATATAGGTAATGCAAGGTGAAAGTCCGATTGT', 'Yes'),
  ('AGAATGAGGTTACCAAACATCAGGGAAACGCTTG', 'No'),
  ('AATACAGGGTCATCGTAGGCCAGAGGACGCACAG', 'Yes');

====

# Tested on: PPARg:RXRa 30nM:10nM, anti-RXR (NR concentration 30 nM, RXRa partner concentration 10 nM)
# assayProcedure: PBM binding z-score (relative to random genomic background probes); higher = stronger binding; sequences stand for … in GC…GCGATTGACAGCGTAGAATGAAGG
A collection of sequences and their measured PBM binding z-score
attributeMeasured: PBM binding z-score

INSERT INTO assay_data (inputsequence, recordedvalue) VALUES
  ('ATCTCTAGGTAACAAGTTAAGTGAAAGAGAGGAC', 1.59),
  ('CGAACGAGGGCATGAGCTGATAGCAAATGCCGAT', -0.212),
  ('GCAGACAGGTGAAACGCAGGCAACTCAGGGTGGC', -0.566),
  ('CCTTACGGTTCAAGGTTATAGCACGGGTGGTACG', 0.229),
  ('TAGCCTAGGTCATTCAGGGGACAGTATAGAAAGC', 0.785),
  ('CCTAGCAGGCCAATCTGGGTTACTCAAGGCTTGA', -1.01),
  ('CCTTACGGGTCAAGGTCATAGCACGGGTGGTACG', 2.53),
  ('TCGAGTAGCTTACCAATGGGGCATTCAGCTTTCT', 0.616),
  ('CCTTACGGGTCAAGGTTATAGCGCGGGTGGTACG', 1.73),
  ('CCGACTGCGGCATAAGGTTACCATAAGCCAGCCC', -0.468),
  ('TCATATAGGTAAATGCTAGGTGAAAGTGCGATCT', 3.99),
  ('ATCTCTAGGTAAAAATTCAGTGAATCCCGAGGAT', 0.671),
  ('GGAACGAGGGCAAGTTGATAGCAGAGTTTGATGG', -0.0238),
  ('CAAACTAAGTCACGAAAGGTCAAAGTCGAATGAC', 2.48),
  ('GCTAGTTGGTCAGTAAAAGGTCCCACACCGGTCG', -0.539),
  ('TGTTGTAGATCAAGCAGGTTAAGAAAGCCTGAGT', -0.0716),
  ('TCTATTAGTTGACTAGGGCAACCGAAACAGCGGA', 3.68),
  ('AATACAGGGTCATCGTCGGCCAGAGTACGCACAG', 2.65),
  ('TAAGACAGGTGAAGGTAACTCAGGTACGCAGTCG', 1.67),
  ('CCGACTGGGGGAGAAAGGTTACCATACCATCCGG', 4.46),
  ('TAGCCTAGGTCAGATGGGGCCAGTATACGCTATA', 0.184),
  ('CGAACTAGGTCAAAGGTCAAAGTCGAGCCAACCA', 14.7),
  ('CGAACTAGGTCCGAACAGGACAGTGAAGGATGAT', -0.414),
  ('TCTTGTAGATCTACAGGAGGTTAAGAAAGATCGA', 2.09),
  ('ATTTACGGGTCAACGAGGTTATAGCACGCGTATA', 3.27),
  ('TAGCCTAGGTCATTCAGGGGCCTGTATAGAAAGC', 0.363),
  ('CCTACTGGGCTAAAGGTCATTGATTCCAATGCTC', 9.13),
  ('TCTTGTAGATCAGCAGGTTAAGAACGCTGGCCAA', 2.39),
  ('CCTATTAGATGACCATAAGGGCAACCGAAGCTCG', 0.147),
  ('CCGACTGGGGCATAAGGTTCCCATAAGCCAGCCC', -0.116),
  ('CGTCCAAGGTCAAGGGTCAGTGAAGAGATGACGG', 6.12),
  ('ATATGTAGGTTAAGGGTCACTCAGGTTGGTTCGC', 10.8),
  ('GGTACGAGGGCAAGTTGATAGCAGAGTTTGATGG', -0.104),
  ('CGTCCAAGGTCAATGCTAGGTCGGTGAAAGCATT', 1.09),
  ('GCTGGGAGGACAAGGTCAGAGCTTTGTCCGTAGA', -0.497),
  ('TTACCAAGGGGAGCTGAGGTCGTTGATCCAACTC', 0.187),
  ('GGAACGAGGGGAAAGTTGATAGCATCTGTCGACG', 3.53),
  ('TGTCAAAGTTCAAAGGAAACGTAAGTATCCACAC', 4.84),
  ('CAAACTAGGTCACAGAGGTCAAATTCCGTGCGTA', 7.13),
  ('TGAATGAGGTTTTAAGATCAGGGAACGTTGCAAA', 0.000594),
  ('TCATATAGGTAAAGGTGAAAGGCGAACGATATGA', 4.35),
  ('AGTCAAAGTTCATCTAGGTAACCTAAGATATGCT', 3.52),
  ('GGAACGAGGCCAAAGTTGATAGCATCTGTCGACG', 5.14),
  ('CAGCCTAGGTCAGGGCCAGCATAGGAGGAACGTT', -0.543),
  ('AGTACGAGGGCACGCTGAGTTGATAGCAGAGTAG', -0.181),
  ('GGAACGAGGGCAAGTTGATAGAAGAGTTTGATGG', 0.173),
  ('TCTTGTAGATCAGCAGGTTAAGGAAGCTGGCCAA', 2.53),
  ('GGAACGAGGGCAAGTTGATTGCAGAGTTTGATGG', -0.0716),
  ('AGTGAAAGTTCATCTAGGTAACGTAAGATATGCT', 2.65),
  ('GTTGCTAGGTCAGGTTGGTCAGCTAACGGGTACG', -0.115),
  ('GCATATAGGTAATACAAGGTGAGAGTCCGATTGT', 0.605);
